Data provenance: patent US10221177B2

- System: CFA-induced cold hypersensitivity of the hind paw
- PROTOCOL_NOTES: CFA-induced pain test, cold hypersensitivity (cold plate paw withdrawal latency)
- Assay type: in vivo
- PROTOCOL_CONDITIONS: 3 mg/kg PO, 1-2 hour pre-treatment; cold plate 1° C.; solution in 4% DMSO; 5% Tween-80; 20% Cremophor EL; and 71% water
Entries and their Average PWL Post-Treatment
Respond with the number and no other words.

Worked cases, answers included:
MOLECULE | TARGET_SYSTEM | OBSERVABLE | QUANTITATIVE_RESULT
CC(=O)Cn1c(=O)c2c(ncn2[C@@H](C)C(=O)Nc2cncc(-c3cnc(N4CC5C(C4)C5(F)F)nc3)n2)n(C)c1=O (stereo partly drawn) | CFA-induced cold hypersensitivity of the hind paw | Average PWL Post-Treatment | 273.2
CCC(=O)Cn1c(=O)c2c(ncn2[C@@H](C)C(=O)Nc2csc(-c3cnc(N4CCC[C@H]4C(F)(F)F)nc3)n2)n(C)c1=O | CFA-induced cold hypersensitivity of the hind paw | Average PWL Post-Treatment | 233.5

Data request: API: value(readout=Average PWL Post-Treatment, system=CFA-induced cold hypersensitivity of the hind paw) for record Cc1noc(Cn2c(=O)c3c(ncn3[C@@H](C)C(=O)Nc3cccc(-c4cnc(C(F)(F)F)nc4)n3)n(C)c2=O)n1
Data returned: 281.7
